test: soluble on expression in E. coli; label from the status in PepcDB or PDB records
measuredMetric: soluble on expression in E. coli

INSERT INTO assay_data (seqtext, measuredmetric, observedvalue) VALUES
  ('MKNLEKCILCGSHNIVPHWKNVRSYNVSKCLDCSFLFLHEIIDDHELENYYSQSYFMASYAKTENNLIDAANNPKITAEAKEYANLIKLHHPEAHNVGEIGCSWGYLLYNLQNFGYSAKGFELSKTTAEMGSKQLGINITSGFFETQYNQFDVLILRHVLEHVPDPQDLLEKIYDSIKKDGLFILEGPNLDSISSRLFGKNVSWVSPPDHISFPNFISLIMACEKLGFTCIHKSSRRGRGISIFHQALLNSVGLMFGGKEKAKVNLGGINEKPNNQQLSSLKSAALKIVDFLDFLSSPMQPFLKQALLEEEMLIIFKKLEHHHHHH', 'soluble on expression in E. coli', 'not soluble'),
  ('MSLVRNSSRLLRSQLKRVQSVPVALYHENVVEHYENPRNVGSLDKKDVTVGTGLVGAPACGDVMKLQIKVDENGKIVDAKFKTFGCGSAIASSSLATEWVKGKSIDEAGKLKNTDIAKELRLPPVKLHCSMLAEDAIKAALADYKVKQQKKVAN', 'soluble on expression in E. coli', 'not soluble');

* * *

assay: soluble on expression in E. coli; label from the status in PepcDB or PDB records
measuredMetric: soluble on expression in E. coli

INSERT INTO measurements (seqtext, observedvalue) VALUES
  ('MNKVSVVLPTYNCGTYVGVAVESVLQQTYSNYELIIVNDGSTDETDQALAPYLCNNGHIRYIKQGNKGHAGARNTGIRAATGDVIAFIDSDDKWLPEKLGEQVQAMEEDPEVGLVHCNVYGFGENQEVQVRGPLLTQEQLQGYSGYIFDNLYFRKIIITTTTVMIRKSCIDDVGMFDENMTRYGSEDRELFLRILWKYKARYVNKPLAMYRNRSDSEGQNYERMIKGQEYVYEKITSLYGLPQSSKRAVMSKMYQEWAREFYAKGRFADGLTNQVKAIRANPIDMNAYFALKRYARFLFSRATLEHHHHHH', 'not soluble'),
  ('MAHHHHHHMSVVRVSITHSSSGIRVPEKRYELSQTIASIKSNIFTHFATPPEQMQLQLIDDRGVKVESSMADDKQLGYYQCRDDFVIHVVDLRPTQQIANFEDVSQVQKYEITEEAYSKREDNARAFRQLMMARQREEAEKAGNPLPKELDADSYKETAEKIHVDDRCQCQPGDRLGTVRFVGRVASLKPGYWIGVEFDEPVGKGDGSVKGTRVFECQPKYGGFLRPDQVTVGDFPPEEF', 'not soluble'),
  ('GMTYQALMFDIDGTLTNSQPAYTTVMREVLATYGKPFSPAQAQKTFPMAAEQAMTELGIAASEFDHFQAQYEDVMASHYDQIELYPGITSLFEQLPSELRLGIVTSQRRNELESGMRSYPFMMRMAVTISADDTPKRKPDPLPLLTALEKVNVAPQNALFIGDSVSDEQTAQAANVDFGLAVWGMDPNADHQKVAHRFQKPLDILELFK', 'soluble'),
  ('MITAIVFDVDDTIYDQQAPYRIAMEKCFPDFDMSVMNQAYIRFRHYSDVGFPRVMAGEWTTEYFRFWRCKETLLEFGYREIDEAAGVHFQEVYEHELENITMLDEMRMTLDFLKSKNVPMGIITNGPTEHQLKKVRKLGLYDYIDAKRVIVSQATGFQKPEKEIFNLAAEQFDMNPQTTLYVGDSYDNDIMGAFNGGWHSMWFNHRGRQLKPGTKPVYDVAIDNFEQLFGAVKVLFDLPDNKFIFDVNDKKNPILQMGINNGLMMAAERLLESNMSIDKVVILLRLTKQQEKVLRLKYAR', 'not soluble'),
  ('GCPHDCVFCNQNTITGEESKVNGDYVKSTVEDYLDTIPNKSATIEISFFGGTFTAINIEKQKELLSVARHYKEIGKIKYIRLSTRPDYIDDEILTNLKNYSVDIIELGVQSLDSEVLLKSGRGHTKEDVVKASRLIKKYGFTLGHQIMLGLPGDNAEKDIETTRKVICMKPNICRIYPALVIKDTAMEKMYNRGIYKPYDIEECVEI', 'not soluble'),
  ('MAGQEDPVQREIHQDWANREYIEVITSSIKKIADFLNSFDMSCRSRLATLNEKLTALERRIEYIEARVTKGETLT', 'soluble'),
  ('MSTLEIKNLHAQVVPADESAAPKPILKGVNLTIKSGETHAIMGPNGSGKSTLAYTLSGHPRYEVTDGEVLLDGENILDMDIDERARAGLFLAMQYPTEIPGVSMANFLRSAATAVRGEAPKLREWVKEVKQAQQDLKIDKAFNERSVNEGFSGGEKKRHEVLQLDLLQPKFAVMDETDSGLDVDALRIVSEGINRYQEKSNGGILMITHYKRILNYVQPDFVHVFANGQIITSGGPELADDLEANGYDRFLA', 'not soluble');
